Answer each item with its documented melting point.

## Task Which measured melting point value corresponds to COc1ccc2c(c1)C(c1ccccc1)NC(=O)N2CC(F)(F)F (configuration not stated) ?
## Result 168 to 169 °C

## Task Which measured melting point value corresponds to CC(C)CN1CCc2ccc(C(=O)CCC(=O)N3CCC(c4ccc(Cl)cc4)CC3)cc2CC1 ?
## Result 137 to 138 °C

## Task Which measured melting point value corresponds to O=C1CCCN1C(=O)Oc1ccc([N+](=O)[O-])cc1 ?
## Result 122 to 123 °C

## Task Which measured melting point value corresponds to CCCCC(c1cc(F)ccc1F)S(=O)c1ccc(Cl)cc1 (configuration not stated) ?
## Result 108 to 109 °C

## Task Which measured melting point value corresponds to CC1(C)COC(c2c(Cl)cc(Cl)cc2-c2ccc(F)cc2)=N1 ?
## Result 93 to 95 °C

## Task Which measured melting point value corresponds to CN=C1CN(c2ccccc2)C(=O)N1C ?
## Result 160 to 162 °C

## Task Which measured melting point value corresponds to COC(=O)CCCNS(=O)(=O)c1cccc2c([N+](=O)[O-])cccc12 ?
## Result 102 to 104 °C

## Task Which measured melting point value corresponds to CCOc1cc2c(cc1OCC)-c1c(C#N)sc(=N)n1CC2 ?
## Result 180 to 182 °C

## Task Which measured melting point value corresponds to C[Si](C)(C)c1ccc(O)cc1 ?
## Result 76 °C

## Task Which measured melting point value corresponds to Nc1cc2c(cc1[N+](=O)[O-])CCC2 ?
## Result 131 to 132 °C

## Task Which measured melting point value corresponds to c1ccc2sc(SSN(C3CCCCC3)C3CCCCC3)nc2c1 ?
## Result 84 to 86 °C

## Task Which measured melting point value corresponds to CC(O)CSc1sc(-c2cc[nH]n2)c2c1C(=O)CC(C)(C)C2 (configuration not stated) ?
## Result 175 to 178 °C

## Task Which measured melting point value corresponds to O=[N+]([O-])c1oc2ccc(CCO)cc2c1-c1ccccc1 ?
## Result 169 to 173 °C

## Task Which measured melting point value corresponds to CC=C(NC(=O)CC(C)C)C(=O)O ?
## Result 172 to 174 °C

## Task Which measured melting point value corresponds to COc1ccc2oc(CC(=O)O)c(C)c2c1 ?
## Result 113 to 114 °C

## Task Which measured melting point value corresponds to CCOC(=O)C=CC=CCCC(C)C1CCC2C3CCC4CC(OC(C)=O)CCC4(C)C3CC(OC(C)=O)C12C (configuration not stated) ?
## Result 129 to 131 °C

## Task Which measured melting point value corresponds to O=C(Nc1cccc(Cl)c1)ONC1=Nc2ccc([N+](=O)[O-])cc2C(c2ccccc2Cl)=NC1 ?
## Result 130 to 135 °C

## Task Which measured melting point value corresponds to CCCc1c(OCCCCC(=O)O)ccc(C(C)=O)c1O ?
## Result 97 to 102 °C

## Task Which measured melting point value corresponds to Cc1ccccc1N=C(C#N)c1c(Cl)cccc1Cl ?
## Result 55 °C

## Task Which measured melting point value corresponds to C=CCc1cc2c(c(CC=C)c1O)OCC(=O)N2CC=C ?
## Result 91 to 92 °C

## Task Which measured melting point value corresponds to Cc1ccc(Cl)cc1NC(=S)n1c(C)c(C)c2ccccc21 ?
## Result 115 °C

## Task Which measured melting point value corresponds to CCCCn1cc(C2CCN(Cc3ccc(OC)c(C(=O)O)c3)CC2)c2cccnc21 ?
## Result 174 to 175 °C

Ref: a melting point compilation (Tetko et al.; mined from patent text by program, amines drawn as free bases though some values may be those of a salt)
